- test.target: T1, human TL1A extracellular domain with N-terminal HIS and FLAG tag (human, UniProt O95150 72-251)
- T1 construct: the whole entry is named; also called TNFSF15
- T1 sequence: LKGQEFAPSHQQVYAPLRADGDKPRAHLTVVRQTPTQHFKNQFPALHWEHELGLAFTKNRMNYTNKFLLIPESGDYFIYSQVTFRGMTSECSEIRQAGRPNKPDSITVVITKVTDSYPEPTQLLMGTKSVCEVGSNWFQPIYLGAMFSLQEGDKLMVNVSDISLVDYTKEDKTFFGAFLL
- assay.explanation: SPR Run 7, antibody on Protein A, TL1A 5 ug/mL, timepoint 44
result.type: TL1A Binding Level (Early) (RU)
Express your answer in RU, writing the number without its unit.

Examples with their reported TL1A Binding Level (Early) follow.
320-536 (antibody, human IgG1, name in Kabat numbering, V domains shown, full-length human IgG1, lambda) VH: QVQLVQSGAEVKKPGASVKVSCKASGYTFTSYDINWVRQAPGQGLEWMGWLNPNSKNTGYAQKFQGRVTMTADRSTSTAYMELSSLRSEDTAVYYCAREVPETAAFEYWGQGTLVTVSS VL: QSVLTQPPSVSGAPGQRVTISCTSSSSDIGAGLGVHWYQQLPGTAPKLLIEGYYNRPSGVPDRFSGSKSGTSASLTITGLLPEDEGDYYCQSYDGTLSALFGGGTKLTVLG    115
320-529 (antibody, human IgG1, name in Kabat numbering, V domains shown, full-length human IgG1, lambda) VH: QVQLVQSGAEVKKPGASVKVSCKASGYTFTSYDINWVRQAPGQGLEWMGWLNPNWGNTGYAQKFQGRVTMTADRSTSTAYMELSSLRSEDTAVYYCAREVPETAAFEYWGQGTLVTVSS VL: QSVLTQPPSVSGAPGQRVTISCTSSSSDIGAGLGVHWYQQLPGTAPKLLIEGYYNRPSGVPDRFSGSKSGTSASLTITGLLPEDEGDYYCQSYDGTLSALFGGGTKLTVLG    94
320-497 (antibody, human IgG1, name in Kabat numbering, V domains shown, full-length human IgG1, lambda) VH: QVQLVQSGAEVKKPGASVKVSCKASGYTFTSYDINWVRQAPGQGLEWMGWLAPNSGNTGYAQKFQGRVTMTADRSTSTAYMELSSLRSEDTAVYYCAREVPETAAFEYWGQGTLVTVSS VL: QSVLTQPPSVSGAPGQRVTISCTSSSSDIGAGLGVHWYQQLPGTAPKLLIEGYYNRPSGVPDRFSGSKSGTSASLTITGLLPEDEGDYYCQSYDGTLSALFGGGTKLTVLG    135
320-527 (antibody, human IgG1, name in Kabat numbering, V domains shown, full-length human IgG1, lambda) VH: QVQLVQSGAEVKKPGASVKVSCKASGYTFTSYDINWVRQAPGQGLEWMGWLNPNKGNTGYAQKFQGRVTMTADRSTSTAYMELSSLRSEDTAVYYCAREVPETAAFEYWGQGTLVTVSS VL: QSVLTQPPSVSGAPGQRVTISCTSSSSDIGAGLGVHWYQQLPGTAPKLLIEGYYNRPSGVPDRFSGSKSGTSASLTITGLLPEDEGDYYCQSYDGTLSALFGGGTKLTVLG    146
320-568 (antibody, human IgG1, name in Kabat numbering, V domains shown, full-length human IgG1, lambda) VH: QVQLVQSGAEVKKPGASVKVSCKASGYTFTSYDINWVRQAPGQGLEWMGWLNPNSGNTGQAQKFQGRVTMTADRSTSTAYMELSSLRSEDTAVYYCAREVPETAAFEYWGQGTLVTVSS VL: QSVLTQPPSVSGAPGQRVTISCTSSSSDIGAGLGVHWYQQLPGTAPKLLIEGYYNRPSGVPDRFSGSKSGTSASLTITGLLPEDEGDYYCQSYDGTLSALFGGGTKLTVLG    115
320-557 (antibody, human IgG1, name in Kabat numbering, V domains shown, full-length human IgG1, lambda) VH: QVQLVQSGAEVKKPGASVKVSCKASGYTFTSYDINWVRQAPGQGLEWMGWLNPNSGNTAYAQKFQGRVTMTADRSTSTAYMELSSLRSEDTAVYYCAREVPETAAFEYWGQGTLVTVSS VL: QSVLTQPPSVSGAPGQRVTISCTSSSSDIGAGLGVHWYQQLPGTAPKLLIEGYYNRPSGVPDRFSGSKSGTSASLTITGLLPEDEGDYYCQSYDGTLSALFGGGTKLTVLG    26

Request: Which TL1A Binding Level (Early) reading was recorded for the binder 320-541 (antibody, human IgG1, name in Kabat numbering, V domains shown, full-length human IgG1, lambda) VH: QVQLVQSGAEVKKPGASVKVSCKASGYTFTSYDINWVRQAPGQGLEWMGWLNPNSGQTGYAQKFQGRVTMTADRSTSTAYMELSSLRSEDTAVYYCAREVPETAAFEYWGQGTLVTVSS VL: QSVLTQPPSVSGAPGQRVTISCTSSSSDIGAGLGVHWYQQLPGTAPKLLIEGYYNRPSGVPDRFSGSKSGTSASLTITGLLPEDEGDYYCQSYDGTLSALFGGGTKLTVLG ?
Response: 94

Request: Which TL1A Binding Level (Early) reading was recorded for the binder 320-577 (antibody, human IgG1, name in Kabat numbering, V domains shown, full-length human IgG1, lambda) VH: QVQLVQSGAEVKKPGASVKVSCKASGYTFTSYDINWVRQAPGQGLEWMGWANPNSGNTGYAQKFQGRVTMTADRSTSTAYMELSSLRSEDTAVYYCAREVPETAAFEYWGQGTLVTVSS VL: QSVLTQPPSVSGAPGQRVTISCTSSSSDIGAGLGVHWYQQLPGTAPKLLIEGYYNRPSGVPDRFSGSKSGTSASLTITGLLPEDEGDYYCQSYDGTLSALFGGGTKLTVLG ?
Response: 98

Request: Which TL1A Binding Level (Early) reading was recorded for the binder 320-503 (antibody, human IgG1, name in Kabat numbering, V domains shown, full-length human IgG1, lambda) VH: QVQLVQSGAEVKKPGASVKVSCKASGYTFTSYDINWVRQAPGQGLEWMGWLWPNSGNTGYAQKFQGRVTMTADRSTSTAYMELSSLRSEDTAVYYCAREVPETAAFEYWGQGTLVTVSS VL: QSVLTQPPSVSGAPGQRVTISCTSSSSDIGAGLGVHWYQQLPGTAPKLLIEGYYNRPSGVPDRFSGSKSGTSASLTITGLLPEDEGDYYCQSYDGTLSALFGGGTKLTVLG ?
Response: 41

Request: Which TL1A Binding Level (Early) reading was recorded for the binder 320-543 (antibody, human IgG1, name in Kabat numbering, V domains shown, full-length human IgG1, lambda) VH: QVQLVQSGAEVKKPGASVKVSCKASGYTFTSYDINWVRQAPGQGLEWMGWLNPNSGHTGYAQKFQGRVTMTADRSTSTAYMELSSLRSEDTAVYYCAREVPETAAFEYWGQGTLVTVSS VL: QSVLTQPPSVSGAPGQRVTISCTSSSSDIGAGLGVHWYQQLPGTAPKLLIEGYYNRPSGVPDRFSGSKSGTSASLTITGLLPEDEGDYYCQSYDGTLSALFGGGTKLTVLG ?
Response: 138
